Hey, just so you know, these numbers are from ChEMBL document CHEMBL1126206.

target: Human immunodeficiency virus type 1 reverse transcriptase (Human immunodeficiency virus 1)
pIC50: −log10 of the molar value.
OUTCOME_MEASURE: pIC50

Consider the following illustrative entries.
O=C(CCCCCCCCCCC(=O)Nc1cc(S(=O)(=O)O)cc2cc(S(=O)(=O)O)cc(S(=O)(=O)O)c12)Nc1cc(S(=O)(=O)O)cc2cc(S(=O)(=O)O)cc(S(=O)(=O)O)c12 :: 3.87
O=S(=O)(O)c1cc(S(=O)(=O)O)c2cc(NS(=O)(=O)c3ccc(-c4ccc(S(=O)(=O)Nc5ccc6cc(S(=O)(=O)O)cc(S(=O)(=O)O)c6c5)cc4)cc3)ccc2c1 :: 3.90

1 = O=C(O)CCCCCCCCC(=O)Nc1cc(S(=O)(=O)O)cc2cc(S(=O)(=O)O)cc(O)c12
2 = CC(=O)Nc1cc(S(=O)(=O)O)cc2cc(S(=O)(=O)O)cc(O)c12
In: Hi there! Just curious which has the higher pIC50 between 1 and 2 . Response format: the label of the selected entry.
Out: 1
